Each recorded value in this set is attributed to PubChem BioAssay (NCI).

MEASUREMENT DESCRIPTION: NCI Yeast Anticancer Drug Screen. Data for the rad50 strain (AID 155);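 also: 0% = growth of vehicle-only cultures of the same strain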
CONDITION DETAILS: S. cerevisiae rad50 strain growth inhibition; at 50.0 µM; hits give high values
The panel holds about 79,000 compounds, 15% with a hit somewhere; the sample as a whole holds those more often.
Respond with 1 for growth inhibition values of 90% and above, 0 for values below.

# count of solved cases: 3
Cc1c(N=Nc2ccc(Cl)cc2)c(C)n(C2OC(CO)C(O)C(O)C2O)c(=S)c1C#N (configuration not stated)
0
Cc1cc(N(CCOS(C)(=O)=O)CCOS(C)(=O)=O)ccc1C=O
0
Cc1[nH]nc(C(F)(F)F)c1N=NN(C)C
1

Query: Confirm if growth inhibition reported for the molecule "O=C(O)CN(CCNC(=O)OCC1c2ccccc2-c2ccccc21)CCNC(=O)OCC1c2ccccc2-c2ccccc21" is 90% or above.
Reply: 1

Query: One more molecule: "CCOc1ccc2ccc3cccnc3c2n1"
Reply: 0

Query: One more molecule: "Cc1nc2ccc(NCCN(C)C)c3c(=O)c4ccccc4n1c23"
Reply: 0

====

MEASUREMENT DESCRIPTION: NCI Yeast Anticancer Drug Screen. Data for the CLN2oe strain (AID 163);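 also: 0% = growth of vehicle-only control cultures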
CONDITION DETAILS: S. cerevisiae CLN2oe strain, at 1.2 µM, hits give high values
The panel holds about 79,000 compounds, 15% with a hit somewhere; the sample as a whole holds those more often. The source made the active and inactive calls. Rule as the data show it: active = growth inhibition above about 70%; inactive = the rest.
ENDPOINT NAME: growth inhibition

Reference set, count: 2
COc1cc(NCCCCCNC(C)C)c2ncccc2c1Cl
0% (inactive)
c1cc2ccc3cc4ncccc4c4ccc(c1)c2c34
-3% (inactive)

# per-item lookup of growth inhibition; items listed below
1. COc1ccc(/C(=N/O)c2ccccc2C2=Nc3ccccc3C(NCc3ccccc3)O2)cc1C (stereo not given)
2. O=C(CCCN1CCC2(CC1)OC(=O)N(c1ccccc1)C2=O)c1ccccc1
3. O=C(Nc1ccn(C2CC(O)C(COC(c3ccccc3)(c3ccccc3)c3ccccc3)O2)c(=O)n1)c1ccccc1 (stereo not given)
4. O=C(CCC(=O)c1ccc(O)cc1)Oc1ccc(O)cc1

Reply:
1. -2% (inactive)
2. 45% (inactive)
3. -15% (inactive)
4. 3% (inactive)

====

What growth inhibition was measured for each of the following?
MEASUREMENT DESCRIPTION: NCI Yeast Anticancer Drug Screen. Data for the mlh1 rad18 strain (AID 175)
CONDITION DETAILS: S. cerevisiae mlh1 rad18 strain growth inhibition; at 50.0 µM (retest, dose inferred, filed as 5.0); hits give high values
About 79,000 compounds went through this panel and 15% of them were active in at least one assay; those are over-represented in the sample as a whole.
Give bare numbers, in %.

CCCCCCCCCCCCCCCCOCC(Cl)COP(=O)(O)OP(=O)(O)OCC1OC(n2cnc3c(N)ncnc32)C(O)C1O (stereo not drawn)
92
CSc1ccc2c(c1)C(N1CCN(C)CC1)Cc1ccccc1S2 (stereo not drawn)
89

Query: Would you kindly share the measured growth inhibition for "O=c1oc(C(C(F)(F)F)C(F)(F)F)nc2ccccc12" ?
Reply: 88

====

MEASUREMENT DESCRIPTION: NCI Yeast Anticancer Drug Screen. Data for the rad50 strain (AID 155);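 also: 0% = growth of vehicle-only cultures of the same strain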
CONDITION DETAILS: S. cerevisiae rad50 strain growth inhibition; at 50.0 µM (retest, dose inferred, filed as 5.0); hits give high values
The panel holds about 79,000 compounds, 15% with a hit somewhere; the sample as a whole holds those more often. Starred links: 1 amine or outer side, 2 acyl side, 3 side chain; linkers in the order of their positions; H or OH if unused. Positions of bridges follow the written chain, without caps; N, C: chain ends. Non-standard residues stand in square brackets, D forms with d. Residues, ends and D or L forms follow the SMILES beside them. Chains are numbered I, II in the order given. Actinocin(9to1) = Cc1c2oc3c(C)ccc(C(=O)[*:1])c3nc-2c(C(=O)[*:2])c(N)c1=O; aThr = C[C@H](O)[C@H](N)C(=O)O; NMeV = CN[C@H](C(=O)O)C(C)C; Sar = CNCC(=O)O
What growth inhibition was measured for each of the following?
One number for each entry, in %.

O=c1[nH]c(=O)n(CCCO)cc1F
44
Cc1cc(NCCCN(C)C)c2ccc3c(ccc4c(NCCCN(C)C)cc(C)nc43)c2n1
90
[N-]=[N+]=NC1CC(n2ccc(=O)[nH]c2=O)OC1COC(c1ccccc1)(c1ccccc1)c1ccccc1 (stereo not given)
82
COc1ccc2c(C)cc(N/N=C/c3sccc3C)nc2c1
92

# per-item lookup of growth inhibition; items listed below
1. O=C(Cc1ccccc1F)NC1=C(Cl)C(=O)c2ccccc2C1=O
2. Cc1c2oc3c(C)ccc(C(=O)N[C@@H]4C(=O)N[C@H](C(C)C)C(=O)N5CCC[C@H]5C(=O)N(C)CC(=O)N(C)[C@@H](C(C)C)C(=O)O[C@H]4C)c3nc-2c(C(=O)N[C@@H]2C(=O)N[C@H](C(C)C)C(=O)N3CCC[C@H]3C(=O)N(C)CC(=O)N(C)[C@@H](C(C)C)C(=O)O[C@H]2C)c(N)c1=O (I: [aThr][dV]P[Sar][NMeV] / II: [aThr][dV]P[Sar][NMeV]; ester I:1-I:C, II:1-II:C; linker I:N-II:N via Actinocin(9to1))
3. CCOC(=O)/C=C1\CCCn2c1ncc(C(=O)OCC)c2=O
4. O=S(=O)(CCC[C@H]1[C@@H](CCOCc2ccccc2)C2CCCN1O2)c1ccccc1 (stereo not given in full)
5. c1cc2ccc3cc4ncccc4c4ccc(c1)c2c34

Reply:
[4, 98, 30, -11, 96]

====

MEASUREMENT DESCRIPTION: NCI Yeast Anticancer Drug Screen. Data for the sgs1 strain (AID 173);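 also: 0% = growth of vehicle-only control cultures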
CONDITION DETAILS: S. cerevisiae sgs1 mutant, at 33.0 µM, hits give high values
About 79,000 compounds went through this panel and 15% of them were active in at least one assay; those are over-represented in the sample as a whole.
What growth inhibition was measured for each of the following?
One number for each entry, in %.

# per-item lookup of growth inhibition; items listed below
1. c1cncc(C(Nc2cccc3cccnc23)Nc2cccc3cccnc23)c1
2. CC[C@@]1(OC(=O)CN(C)C)C(=O)OCc2c1cc1n(c2=O)Cc2cc3ccccc3nc2-1
3. COc1ccc2nc3cccc([N+](=O)[O-])c3c(NCCCO)c2c1

Reply:
[64, 94, 98]

# per-item lookup of growth inhibition; items listed below
1. CCOC(=O)c1[nH]c2cccc3c2c1CC(Br)C3=O (centres undefined)
2. CN(C)CCNC(=O)c1cccc2nc3c(ccc4ccccc43)nc12
3. CCCCOc1ccc(Nc2c3ccccc3nc3ccccc23)cc1
4. CNc1ccc2[nH]c3ccccc3c2c1
5. O=c1[nH]cc(F)c(=O)[nH]1

Reply:
68
30
98
11
92

Query: Would you kindly share the measured growth inhibition for "Cc1nc2ccccc2c(=O)n1NC(=O)c1ccc(CS)cc1" ?
Reply: 61

====

MEASUREMENT DESCRIPTION: NCI Yeast Anticancer Drug Screen. Data for the rad14 strain (AID 159);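 also: 0% = growth of vehicle-treated control cultures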
CONDITION DETAILS: S. cerevisiae rad14 strain growth inhibition; at 33.0 µM
Method: Growth inhibition of yeast strains with defined genetic alterations is measured as a screen for potential anti-cancer activity. Selected strains with alterations in DNA damage repair or cell cycle control were exposed to compounds and growth inhibition was measured relative to vehicle treated controls. The strain used in this assay is rad14
About 79,000 compounds went through this panel and 15% of them were active in at least one assay; those are over-represented in the sample as a whole. Active and inactive are the calls of the source. Rule as the data show it: active = growth inhibition above about 70%; inactive = the rest.
# output must be one of active, inactive

# count of solved cases: 2
COc1ccc2cc(CN3CCC(C4CCN(Cc5ccc6cc(OC)ccc6c5)CC4)CC3)ccc2c1
inactive
Cc1cc(NC(=S)SCc2ccc(Cl)cc2)ccc1Cl
active

Query: Called result for CCC(C)C(=O)OCC(=O)c1ccc(-c2ccccc2)cc1 (stereo not drawn)
Reply: inactive

====

MEASUREMENT DESCRIPTION: NCI Yeast Anticancer Drug Screen. Data for the mlh1 strain (AID 171);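 also: 0% = growth of vehicle-treated control cultures of the same strain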
CONDITION DETAILS: S. cerevisiae mlh1 strain growth inhibition; at 1.2 µM; hits give high values
Compounds without any hit were thinned out: in the full panel of roughly 79,000, 15% have a hit.
ENDPOINT NAME: growth inhibition (%)
Answers are plain numbers, in %.

CC(=O)CC[N+](C)(C)C
-13
O=C(CSS(=O)(=O)O)c1ccccc1
-4
COc1cc(C(C)C(C(=O)O)C(=O)C(=O)O)cc(OC)c1OC (stereo unspecified)
0
CC(=O)c1ccc(NCN2C(=O)c3ccccc3C2=O)cc1
-44
CCOC(=O)/C(O)=C(/C=N/C(=S)Nc1c(CC)cccc1CC)C(=O)OCC
-6

# per-item lookup of growth inhibition; items listed below
1. O=C(/C(=C/c1ccccc1)CBr)c1ccccc1
2. CN(C)CCC(=O)c1c[nH]c2ccccc12
3. O=C(O)NCC1CCCCC1 (tested in a mixture with another compound)
4. O=C(N/N=C/c1ccc2c(c1)CCC2)c1ccccc1[N+](=O)[O-]
5. CCCCCCC(CCl)c1sc(-c2csc(CCNC(=O)OC(C)(C)C)n2)nc1C(=O)OC (stereo unspecified)
6. c1ccc(C2=NNC3c4ccccc4-c4ccccc4N3C2)cc1 (stereo unspecified)

Reply:
[3, -61, -2, -19, -3, -1]
